I'd be grateful if you could share measured cell viability for these entries.
tested on: Caco-2; assay: cell viability relative to DMSO; higher = less toxic; conditions: 72 h; 1000 nM
Return type: number; implicit unit %.

In: I'd like to know its cell viability. The compound in question is CCCCCCCCCCCCCC[C@@H](O)[C@@H](O)[C@@H](N)CO
Out: 113

In: I'd like to know its cell viability. The compound in question is c1cc(CN2CCCCC2)cc(OCCCNc2nc3ccccc3s2)c1 [zolantidine]
Out: 96.6

In: I'd like to know its cell viability. The compound in question is CCN(CC)CCCCC1CCN(CC(=O)N2c3ccccc3C(=O)Nc3cccnc32)CC1
Out: 86.4

In: I'd like to know its cell viability. The compound in question is Nc1c(Br)cc(Br)cc1CN[C@H]1CC[C@H](O)CC1
Out: 89.4

In: I'd like to know its cell viability. The compound in question is C[C@H]1[C@H](C)CC[C@]2(C(=O)O)CC[C@]3(C)C(=CC[C@@H]4[C@@]5(C)C[C@@H](O)[C@H](O)C(C)(C)[C@@H]5CC[C@]43C)[C@H]12
Out: 108

In: I'd like to know its cell viability. The compound in question is CC(C)(O)CC(=O)O [beta-hydroxy-beta-methylbutyrate]
Out: 92.6

In: I'd like to know its cell viability. The compound in question is C[C@@H](O[C@H]1OCCN(Cc2nn(P(=O)(O)O)c(=O)[nH]2)[C@H]1c1ccc(F)cc1)c1cc(C(F)(F)F)cc(C(F)(F)F)c1 [fosaprepitant-dimeglumine]
Out: 102

In: I'd like to know its cell viability. The compound in question is COc1cc(/C=C/C(=O)O)ccc1O
Out: 92.2

In: I'd like to know its cell viability. The compound in question is CCOC(=O)Nc1nc2ccccc2[nH]1
Out: 109

In: I'd like to know its cell viability. The compound in question is Cc1c(NC(=O)c2cc3c(s2)CCCC3)cccc1-c1cn(C)c(=O)c(Nc2ccc(C3C(=O)N(C)CCN3C)cc2)n1 (stereo in doubt)
Out: 96.3

In: I'd like to know its cell viability. The compound in question is O=C(O)C[C@H](O)C(=O)O
Out: 91

In: I'd like to know its cell viability. The compound in question is CC(CC(C(N)=O)(c1ccccc1)c1ccccc1)N(C)C (configuration not stated) [aminopentamide]
Out: 92.8

In: I'd like to know its cell viability. The compound in question is NC(=O)N/N=C/c1ccc(Oc2ccc(F)cc2)cc1
Out: 96.8

In: I'd like to know its cell viability. The compound in question is CN(C)C(=O)CCSC(SCCC(=O)O)c1cccc(/C=C/c2ccc3ccc(Cl)cc3n2)c1 (configuration not stated)
Out: 92.6

In: I'd like to know its cell viability. The compound in question is O=C(Nc1ccc([N+](=O)[O-])cc1Cl)c1cc(Cl)ccc1O [niclosamide]
Out: 93.7

In: I'd like to know its cell viability. The compound in question is NC(=O)c1ncn([C@@H]2O[C@H](CO)[C@@H](O)[C@H]2O)c1O
Out: 97.1

In: I'd like to know its cell viability. The compound in question is Oc1cc2c(cc1O)[C@H]1c3ccccc3CN[C@@H]1CC2 (racemic) [dihydrexidine]
Out: 92.6

* * *

test system: Vero E6; assay: drug sensitivity score (DSS) for viability; higher = more toxic; extreme values may be limits of the assay; conditions: 72 h
quantity measured: drug sensitivity score

In: Notebook: pull reported drug sensitivity score for Vero E6, entry COC(=O)C1=C(C)N(C)C(C)=C(C(=O)OC)C1c1ccc(C(F)(F)F)cc1 [BAY-W-9798]
Out: 0

In: Notebook: pull reported drug sensitivity score for Vero E6, entry CN1c2cc3c(cc2N=C(c2ccc(C(=O)O)cc2)c2ccccc21)C(C)(C)CCC3(C)C [LE-135]
Out: 1.7

In: Notebook: pull reported drug sensitivity score for Vero E6, entry Oc1cc2c(cc1O)[C@H]1c3ccccc3CN[C@@H]1CC2 (racemic) [dihydrexidine]
Out: 0

In: Notebook: pull reported drug sensitivity score for Vero E6, entry CN1C(=O)C[C@@H](C(=O)N[C@@H](Cc2c[nH]cn2)C(=O)N2CCC[C@H]2C(N)=O)NC1=O [taltirelin]
Out: 0

In: Notebook: pull reported drug sensitivity score for Vero E6, entry CCCCOc1ccc(CC(=O)NO)cc1 [bufexamac]
Out: 0.1

* * *

tested on: U2OS; assay: cell viability relative to DMSO; higher = less toxic; details: 72 h; 100 nM
quantity measured: cell viability (%)
Return type: number; implicit unit %.

In: I'd like to know its cell viability. The molecule in question is O=C1[C@H]2CCCC[C@H]2C(=O)N1CCCCN1CCN(c2nsc3ccccc23)CC1 [perospirone]
Out: 104

In: I'd like to know its cell viability. The molecule in question is CC(=O)N[C@@H](CCC(N)=O)C(=O)O [aceglutamide]
Out: 99.2

In: I'd like to know its cell viability. The molecule in question is CSC[C@H](N)C(=O)O [S-methylcysteine]
Out: 104

In: I'd like to know its cell viability. The molecule in question is N#Cc1c(O)c2c(-c3ccc(-c4ccccc4O)cc3)csc2[nH]c1=O
Out: 99.8

In: I'd like to know its cell viability. The molecule in question is O=C(O)C[C@H](O)C(=O)O [malic-acid]
Out: 103

In: I'd like to know its cell viability. The molecule in question is CNC[C@H](O)c1ccc(O)c(O)c1 [epinephrine]
Out: 98.2

In: I'd like to know its cell viability. The molecule in question is CC(=O)Oc1cc2c(s1)CCN(C(C(=O)C1CC1)c1ccccc1F)C2 (stereo not given) [prasugrel]
Out: 102

In: I'd like to know its cell viability. The molecule in question is CCOC(=O)[C@@H](N)CCC(=O)N[C@@H](CSCc1ccccc1)C(=O)N[C@@H](C(=O)OCC)c1ccccc1 [ezatiostat]
Out: 96.1

In: I'd like to know its cell viability. The molecule in question is CCOCC(O)COc1ccc(NC(=O)CC[S+](C)C)cc1 (stereo not given) [suplatast]
Out: 100

In: I'd like to know its cell viability. The molecule in question is CN(C)CCCn1cc(C2=C(c3c[nH]c4ccccc34)C(=O)NC2=O)c2ccccc21
Out: 96.5

* * *

tested on: Caco-2; experiment: cell viability relative to DMSO; higher = less toxic; settings: 72 h; 1000 nM
quantity measured: cell viability (%)
Return type: number; implicit unit %.

In: Notebook: pull reported cell viability for Caco-2, entry C[C@@H](N)[C@@H](O)c1ccccc1
Out: 102

In: Notebook: pull reported cell viability for Caco-2, entry O=C(NCC1CCOCC1)c1cnc(Nc2ccc(Cl)cc2Cl)nc1C(F)(F)F
Out: 104

In: Notebook: pull reported cell viability for Caco-2, entry CCC(CC)C(c1ccc(Nc2nc3ccccc3s2)cc1)n1cncn1 (centres undefined)
Out: 103

In: Notebook: pull reported cell viability for Caco-2, entry Nc1ncnc2c1c(-c1ccc(Oc3ccccc3)cc1)nn2C1CCCC1
Out: 93.6

In: Notebook: pull reported cell viability for Caco-2, entry O=C(O)Cn1c(C(=O)Nc2nc(-c3ccccc3Cl)cs2)cc2ccccc21
Out: 89.5

In: Notebook: pull reported cell viability for Caco-2, entry CCN1CCN(C(=O)N[C@@H](C(=O)N[C@@H]2C(=O)N3C(C(=O)O)=C(CSc4nnnn4C)CS[C@H]23)c2ccc(O)cc2)C(=O)C1=O
Out: 100

In: Notebook: pull reported cell viability for Caco-2, entry c1ccc(-c2n[nH]c3c2oc2ccccc23)cc1
Out: 96.8

In: Notebook: pull reported cell viability for Caco-2, entry CN(C)C/C=C/C(=O)Nc1cc2c(Nc3ccc(F)c(Cl)c3)ncnc2cc1O[C@H]1CCOC1
Out: 73.4

In: Notebook: pull reported cell viability for Caco-2, entry O=C1NCCN1CCN1CCC(c2cn(-c3ccc(F)cc3)c3ccc(Cl)cc23)CC1
Out: 80.7

* * *

tested on: HepG2; experiment: cell viability relative to DMSO; higher = less toxic; conditions: 72 h; 1000 nM
quantity measured: cell viability (%)
Return type: number; implicit unit %.

In: I'd like to know its cell viability. The molecule in question is CC(=O)O[C@]1(C(C)=O)CC[C@H]2[C@@H]3C[C@H](C)C4=CC(=O)CC[C@]4(C)[C@H]3CC[C@@]21C [medroxyprogesterone-acetate]
Out: 95.1

In: I'd like to know its cell viability. The molecule in question is CCN[C@@H](C)Cc1cccc(C(F)(F)F)c1 [dexfenfluramine]
Out: 82.9

In: I'd like to know its cell viability. The molecule in question is Nc1nccc(-c2c(-c3ccc(F)cc3)ncn2C2CCCCC2)n1
Out: 92.4

In: I'd like to know its cell viability. The molecule in question is CCOc1ccccc1-n1c(C(C)N2CCN(C(=O)COc3ccc(Cl)cc3)CC2)nc2ccccc2c1=O (stereo not given) [erastin]
Out: 89.8

In: I'd like to know its cell viability. The molecule in question is NC(=O)N/N=C/c1ccc(Oc2ccc(F)cc2)cc1
Out: 89.7

In: I'd like to know its cell viability. The molecule in question is Cc1cc(O)cc(C)c1Cl [chloroxylenol]
Out: 104

In: I'd like to know its cell viability. The molecule in question is O=C(NCC1CCOCC1)c1cnc(Nc2ccc(Cl)cc2Cl)nc1C(F)(F)F
Out: 99.2

In: I'd like to know its cell viability. The molecule in question is O=C(OCCN1CCOCC1)C1(c2ccccc2)CCCCC1 [PRE-084]
Out: 108

In: I'd like to know its cell viability. The molecule in question is CC1(C)CC(=O)C(C2C3=C(CC(C)(C)CC3=O)Oc3ccccc32)C(=O)C1 (stereo not given)
Out: 96.8

In: I'd like to know its cell viability. The molecule in question is C[C@H]1NC(=O)NC1=O [5-methylhydantoin-(D)]
Out: 98.1
